# targetOrTestSystem: T1, human pro-myostatin (human, UniProt O14793 24-375, biotinylated (in the SPR assay))
# T1 construct: Disulfide-linked homodimer; also called proGDF8 (human)
# protocolSummary: SPR Biacore 8K, biotin-antigen captured
Hi there, I'd appreciate the recorded kon for every entry that follows.
Unit M⁻¹ s⁻¹ implied. Number only.

Ask: For the binder Ab106 (antibody, human IgG4 S228P, kappa, V domains shown) VH: EVQLVESGGGLVQPGGSLRLSCAASGSAFSSYGMSWVRQAPGKGLELVASINSNGGSTYYPDSVKGRFTISRDNAKNSLYLQMNSLRAEDTAVYYCARDLLVRFLEWAGYYGMDVWGQGTTVTVSS VL: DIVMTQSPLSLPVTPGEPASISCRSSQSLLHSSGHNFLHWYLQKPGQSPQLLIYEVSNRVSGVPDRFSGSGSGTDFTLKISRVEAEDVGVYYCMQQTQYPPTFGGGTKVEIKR , what kon is on record?
Result: 2e+06

Ask: Now consider Ab128 (antibody, human IgG4 S228P, kappa, V domains shown) VH: EVQLVESGGGLVQPGGSLRLSCTASGFTLSSYSMDWVRQAPGKGLEWVSYITGSGDTTYYADSVKGRFTISRDNAKNTLYLQMNSLRAEDTAVYYCARGFGWISGWAEDYFDYWGQGTLVTVSS VL: DIQMTQSPSSLSASVGDRVTITCQASQSVYSYLNWYQQKPGKAPKLLIYGASRLEGGVPSRFSGSGSGTDFTFTISSLQPEDIATYYCQQHSTDQRTFGGGTKVEIKR .
Result: 1.27e+06

Ask: Now consider Ab102 (antibody, human IgG4 S228P, kappa, V domains shown) VH: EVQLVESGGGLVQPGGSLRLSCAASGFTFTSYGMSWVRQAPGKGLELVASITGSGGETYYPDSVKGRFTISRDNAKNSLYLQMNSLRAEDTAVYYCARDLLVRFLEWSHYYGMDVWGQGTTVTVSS VL: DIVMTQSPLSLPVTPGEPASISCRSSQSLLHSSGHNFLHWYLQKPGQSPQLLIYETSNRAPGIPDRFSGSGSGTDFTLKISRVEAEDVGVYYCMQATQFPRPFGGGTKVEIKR .
Result: 6.49e+06

Ask: Now consider Ab127 (antibody, human IgG4 S228P, kappa, V domains shown) VH: EVQLVESGGGLVQPGGSLRLSCTASGFTFGSYPMDWVRQAPGKGLEWVSYISGRGDVTYYADSVKGRFTISRDNAKNTLYLQMNSLRAEDTAVYYCAKVQSPSELLWFGELLPVDYWGQGTLVTVSS VL: DIQMTQSPSSLSASVGDRVTITCQASQVIKTWLNWYQQKPGKAPKLLIYDASNLQRGVPSRFSGSGSGTDFTFTISSLQPEDIATYYCQQSASTPITFGGGTKVEIKR .
Result: 813000

Ask: Now consider Ab139 (antibody, human IgG4 S228P, kappa, V domains shown) VH: EVQLVESGGGLVQPGGSLRLSCAASGFTFSSYGMSWVRQAPGKGLELVASFTGSGAAYYPDSVKGRFTISRDNAKNSLYLQMNSLRAEDTAVYYCARDLLIRFLEWSHYYGMDVWGQGTTVTVSS VL: DIVMTQSPLSLPVTPGEPASISCRSSQSLLHSSGHNFLHWYLQKPGQSPQLLIYESSNRVSGVPDRFSGSGSGTDFTLKISRVEAEDVGVYYCQQQTQYPPTFGGGTKVEIKR .
Result: 1.9e+07
